B1: CD207 (parent)
chain: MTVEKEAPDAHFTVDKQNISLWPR

Variants of: B1
Test: protein stability index of a GFP-peptide fusion (GPS, HEK-293T) (PSI 1-6); higher = more stable;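 further: lentivirally expressed fusions sorted by FACS into six bins by GFP to DsRed ratio, PSI derived from sequencing read proportions per bin multiplied by bin number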
Details: c terminus: a fixed tail appended
property-label: protein stability index
One number for each entry.

Recorded protein stability index, per entry:
> print(dat)
                     sequence.data           property.label  observed
1   DTVEKEAPDAHFTVDKQNISLWPR [M1D]  protein stability index      4.23
2  MTVEKEAPDAHFTVDFQNISLWPR [K16F]  protein stability index      2.95
3   MTVEREAPDAHFTVDKQNISLWPR [K5R]  protein stability index      2.94
4  MTVEKEAPDAHKTVDKQNISLWPR [F12K]  protein stability index      4.05
5   MTVEKVAPDAHFTVDKQNISLWPR [E6V]  protein stability index      2.05
6   MTFEKEAPDAHFTVDKQNISLWPR [V3F]  protein stability index      2.85

Provide reported protein stability index for each item, in the same order as listed.
1. MTVEKEAPDAHFTVNKQNISLWPR [D15N]
2. MTVEKEAPDAIFTVDKQNISLWPR [H11I]
3. MTVEKEAPKAHFTVDKQNISLWPR [D9K]
4. MTVLKEAPDAHFTVDKQNISLWPR [E4L]
5. MTVEKIAPDAHFTVDKQNISLWPR [E6I]

### Response
[2.54, 2.89, 2.44, 2.79, 2.37]
